Reference for the values: paper PMC8567874

Assay: In situ single-pass rat intestinal perfusion
Type: in vivo
Settings: other: in situ single-pass intestinal perfusion, rat intestine, n = 4, read-out: Effective permeability (Peff)
Protocol: The in situ single-pass intestinal effective permeabilities (Peff) of PMX, PMX/DL(1:1), PMX/DL(1:2), PMX/DL(1:1)-CD, and PMX/DL(1:2)-CD were investigated in rats. […] At the end of the experiment, the lengths and radii of the cannulated intestinal segments were measured, taking care to avoid stretching them. […] The outlet concentration of PMX in the perfusate was analyzed by HPLC as described above. […]
Would you kindly list Papp at 120 min, 100 μg/mL for each of these compounds?
Write the answer as a number in ×10⁻⁶ cm/s, unit excluded.

Please look up its Papp at 120 min, 100 μg/mL: O=C1OC2(c3ccc(O)cc3Oc3cc(O)ccc32)c2ccccc21 0.1

Please look up its Papp at 120 min, 100 μg/mL: Nc1nc2[nH]cc(CCc3ccc(C(=O)N[C@@H](CCC(=O)O)C(=O)O)cc3)c2c(=O)[nH]1 83

* * *

Experiment: In vivo pharmacokinetic study in rats
Parameters: species or system Sprague–Dawley (SD) rats
Details: Sprague-Dawley, rat, plasma, oral, 20 mg/kg PMX, read-out: Bioavailability
measurement type: bioavailability (%)
Write the answer as a number in %, unit excluded.

Please look up its bioavailability: Nc1nc2[nH]cc(CCc3ccc(C(=O)N[C@@H](CCC(=O)O)C(=O)O)cc3)c2c(=O)[nH]1 [PMX, Pemetrexed] 7.8

* * *

Test: In situ single-pass rat intestinal perfusion
Type: in vivo
Conditions: rat, outlet intestinal perfusate, other: in situ single-pass intestinal perfusion, 100 μg/mL, rat intestinal perfusion, 120 min; read-out: Outlet concentration of PMX (Cout)
Protocol: The in situ single-pass intestinal effective permeabilities (Peff) of PMX, PMX/DL(1:1), PMX/DL(1:2), PMX/DL(1:1)-CD, and PMX/DL(1:2)-CD were investigated in rats. […] At the end of the experiment, the lengths and radii of the cannulated intestinal segments were measured, taking care to avoid stretching them. […] The outlet concentration of PMX in the perfusate was analyzed by HPLC as described above. […]
measurement type: concentration at 120 min (µg/mL)
Write the answer as a number in µg/mL, unit excluded.

Please look up its concentration at 120 min: Nc1nc2[nH]cc(CCc3ccc(C(=O)N[C@@H](CCC(=O)O)C(=O)O)cc3)c2c(=O)[nH]1 94.7

* * *

Assay: In vivo pharmacokinetic study in rats
Parameters: species or system Sprague–Dawley (SD) rats
Conditions: Sprague-Dawley, rat, plasma, oral, 20 mg/kg PMX
measurement type: half-life (h)
Write the answer as a number in h, unit excluded.

Please look up its half-life: Nc1nc2[nH]cc(CCc3ccc(C(=O)N[C@@H](CCC(=O)O)C(=O)O)cc3)c2c(=O)[nH]1 13.1

* * *

Assay: In vivo pharmacokinetic study in rats
Set-up: species or system Sprague–Dawley (SD) rats
Settings: Sprague-Dawley, rat, plasma, oral, 20 mg/kg PMX
measurement type: Tmax (min)
Write the answer as a number in min, unit excluded.

Please look up its Tmax: Nc1nc2[nH]cc(CCc3ccc(C(=O)N[C@@H](CCC(=O)O)C(=O)O)cc3)c2c(=O)[nH]1 30

* * *

Experiment: In vivo pharmacokinetic study in rats
Design: species or system Sprague–Dawley (SD) rats
Settings: Sprague-Dawley, rat, plasma, oral, 20 mg/kg PMX, read-out: Cmax
Protocol: The separated plasma samples were kept at −80 °C before analysis and the drug concentration in each plasma sample was determined by LC-MS. […] Agilent Technologies, Santa Clara, CA, USA), conditioned with 500 µL of methanol, followed by 500 µL of deionized water. […] All data were expressed as means ± standard deviations (SDs), or standard errors of the mean (SEMs). […]
measurement type: Cmax (ng/mL)
Write the answer as a number in ng/mL, unit excluded.

Please look up its Cmax: Nc1nc2[nH]cc(CCc3ccc(C(=O)N[C@@H](CCC(=O)O)C(=O)O)cc3)c2c(=O)[nH]1 [PMX, Pemetrexed] 579
